Target: STAT6 (Homo sapiens, UniProt P42226)
Construct: These cells express endogenous STAT6; host or cells: HeLa LgBiT clone 4.14
Test: Stat6 Degrader Assay (HiBiT based, HeLa LgBiT clone 4.14)
Type: cell-based
Conditions: HeLa LgBiT clone 4.14 HiBiT-STAT6, 4-24 h incubation; values given for compounds with >80% Emax; geometric mean; read-out: STAT6 degradation DC50
# DC50 annotations
Unit nM implied. Number only.

| compound | unit_annotation | reading |
| --- | --- | --- |
| CNc1ccn(-c2ccnc3c2cc([C@H](C)N2CC=C(c4c(C)cc(C(=O)N5CCC(CN6CCN(Cc7ccc8c(c7)C(C)(C)C(=O)N8[C@H]7CCC(=O)NC7=O)C[C@@H]6C)CC5)cc4F)CC2)n3C)c(=O)c1 (single isomer, unassigned) [Example 3u176] | nM | 2.3 |
| CNc1ccn(-c2ccnc3c2cc(CN2CC=C(c4c(C)cc(C(=O)N5CCC(CN6CCN(Cc7ccc8c(c7)C(C)(C)C(=O)N8[C@H]7CCC(=O)NC7=O)C[C@@H]6C)CC5)cc4F)CC2)n3C)c(=O)c1 (single isomer, unassigned) [Example 3u179] | nM | 6.1 |
| CNc1ccn(-c2ccnc3c2cc([C@H](C)N2CC=C(c4c(C)cc(C(=O)N5CCC(CN6CCN(Cc7ccc8c(c7)n(C)c(=O)n8C7CCC(=O)NC7=O)CC6)CC5)cc4F)CC2)n3C)c(=O)c1 (stereo partly shown) [Example 3u155] | nM | 0.3 |

Continue with the next compound.
STAT6 (Homo sapiens, UniProt P42226) assay, compound CNc1cc(=O)n(-c2ccnc3c2cc(CN2CCC(c4c(F)cc(C(=O)N5CCC(CN6CCN(Cc7ccc8c(c7)n(C)c(=O)n8[C@@H]7CCC(=O)NC7=O)C[C@@H]6C)CC5)cc4F)CC2)n3C)cc1F (single isomer, unassigned) [Example 3u62] , recorded DC50 = 1.2

----------
Entries and their DC50 values follow.
Molecular target: STAT6 (Homo sapiens, UniProt P42226)
Construct: These cells express endogenous STAT6; host or cells: HeLa LgBiT clone 4.14
Sequence (P42226 1-847): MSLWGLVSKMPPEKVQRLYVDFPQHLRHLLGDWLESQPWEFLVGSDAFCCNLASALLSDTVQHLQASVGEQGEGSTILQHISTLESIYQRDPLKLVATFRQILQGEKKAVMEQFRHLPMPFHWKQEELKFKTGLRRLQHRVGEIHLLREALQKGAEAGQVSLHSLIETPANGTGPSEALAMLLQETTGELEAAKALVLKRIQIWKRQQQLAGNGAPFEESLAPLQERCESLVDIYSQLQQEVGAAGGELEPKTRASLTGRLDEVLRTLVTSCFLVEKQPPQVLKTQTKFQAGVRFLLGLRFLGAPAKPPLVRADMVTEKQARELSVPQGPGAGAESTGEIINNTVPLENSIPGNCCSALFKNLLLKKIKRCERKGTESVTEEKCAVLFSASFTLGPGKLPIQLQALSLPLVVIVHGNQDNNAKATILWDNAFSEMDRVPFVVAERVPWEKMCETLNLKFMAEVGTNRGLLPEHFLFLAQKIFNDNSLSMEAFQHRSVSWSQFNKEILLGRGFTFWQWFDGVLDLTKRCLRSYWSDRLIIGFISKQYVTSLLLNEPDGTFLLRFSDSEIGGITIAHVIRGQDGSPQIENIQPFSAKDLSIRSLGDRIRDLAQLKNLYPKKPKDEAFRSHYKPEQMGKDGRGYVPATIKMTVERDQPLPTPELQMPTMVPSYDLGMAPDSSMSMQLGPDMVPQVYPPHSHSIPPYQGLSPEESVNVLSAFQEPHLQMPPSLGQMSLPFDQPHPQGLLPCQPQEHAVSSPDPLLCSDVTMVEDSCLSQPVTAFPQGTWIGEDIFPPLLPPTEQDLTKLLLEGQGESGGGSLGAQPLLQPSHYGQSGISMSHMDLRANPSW
Experiment: Stat6 Degrader Assay (HiBiT based, HeLa LgBiT clone 4.14)
Assay type: cell-based
Details: HeLa LgBiT clone 4.14 HiBiT-STAT6, 4-24 h incubation; values given for compounds with >80% Emax; geometric mean; read-out: STAT6 degradation DC50
Could you give me the number in nM? Just the number is fine.

| compound | study_system | readout_label | reading |
| --- | --- | --- | --- |
| CNc1ccn(-c2ccnc3c2cc([C@H](C)N2CC=C(c4c(C)cc(C(=O)N5CCC(CN6CCN(c7ccc8c(c7)n(C7CC7)c(=O)n8C7CCC(=O)NC7=O)CC6)CC5)cc4F)CC2)n3C)c(=O)c1 (stereo partly drawn) | STAT6 (Homo sapiens, UniProt P42226) | DC50 | 2.7 |
| CNc1cc(=O)n(-c2ccnc3c2cc([C@H](C)N2CC=C(c4c(C)cc(C(=O)N5CCC(CC6(O)CCN(c7ccc8c(c7)C7(CC7)C(=O)N8C7CCC(=O)NC7=O)CC6)CC5)cc4F)CC2)n3C)cc1F (stereo partly drawn) | STAT6 (Homo sapiens, UniProt P42226) | DC50 | 5.8 |

The record that follows has no DC50 shown yet.
# DC50 measured on STAT6 (Homo sapiens, UniProt P42226) for item CNc1ccn(-c2ccnc3c2cc(CN2CCC(c4c(C)cc(C(=O)N5CCC(CN6CCN(Cc7ccc8c(c7)n(C)c(=O)n8[C@@H]7CCC(=O)NC7=O)CC6)CC5)cc4F)CC2)n3C)c(=O)c1 (single isomer, unassigned) = 12.8

----------
Overview of reported DC50 across a group of compounds:
Molecular target: STAT6 (Homo sapiens, UniProt P42226)
Construct: These cells express endogenous STAT6; host or cells: HeLa LgBiT clone 4.14
Assay: Stat6 Degrader Assay (HiBiT based, HeLa LgBiT clone 4.14)
Assay type: cell-based
Conditions: HeLa LgBiT clone 4.14 HiBiT-STAT6, 4-24 h incubation; values given for compounds with >80% Emax; geometric mean; read-out: STAT6 degradation DC50
Expressed in nM, but write only the number.

| compound | unit_annotation | reading |
| --- | --- | --- |
| Cc1cc(C(=O)N2CCC(CN3CCN(Cc4ccc5c(c4)n(C4CC4)c(=O)n5[C@@H]4CCC(=O)NC4=O)C[C@@H]3C)CC2)cc(F)c1C1=CCN([C@@H](C)c2cc3c(-n4ccc5c(c4=O)CCN5)ccnc3n2C)CC1 (single isomer, unassigned) | nM | 0.4 |

Query CNc1cc(=O)n(-c2ccnc3c2cc([C@H](C)N2CC=C(c4c(C)cc(C(=O)N5CCC(CN6CCN(Cc7ccc8c(c7)C(C)(C)C(=O)N8C7CCC(=O)NC7=O)CC6)CC5)cc4F)CC2)n3C)cc1F (some centres unmarked) yields DC50 of 3.5

----------
Catalogue of DC50 values
Target: STAT6 (Homo sapiens)
Construct: These cells express endogenous STAT6; host or cells: HeLa LgBiT clone 4.14
Assay: Stat6 Degrader Assay (HiBiT based, HeLa LgBiT clone 4.14)
Format: cell-based
Settings: HeLa LgBiT clone 4.14 HiBiT-STAT6, 4-24 h incubation; values given for compounds with >80% Emax; geometric mean; read-out: STAT6 degradation DC50

Below: 3 molecules and their reported DC50.
| molecule | reading |
| --- | --- |
| CNc1ccn(-c2ccnc3c2cc(CN2CCC(c4c(C)cc(C(=O)N5CCC(CN6CCN(Cc7ccc8c(c7)n(C)c(=O)n8[C@H]7CCC(=O)NC7=O)CC6)CC5)cc4F)CC2)n3C)c(=O)c1 (single isomer, unassigned) [Example 3u160] | 10.9 nM |
| CNc1nc(=O)n(-c2ccnc3c2cc(CN2CCC(c4c(F)cc(C(=O)N5CCC(CN6CCN(Cc7ccc8c(c7)C7(CC7)C(=O)N8C7CCC(=O)NC7=O)C[C@@H]6C)CC5)cc4F)CC2)n3C)cc1F (stereo partly shown) [Example 3h10] | 3.2 nM |
| CNc1ccn(-c2ccnc3c2cc([C@H](C)N2CC=C(c4c(C)cc(C(=O)N5CCC(CN6CCN(c7ccc8c(c7)n(C7CC7)c(=O)n8[C@H]7CCC(=O)NC7=O)CC6)CC5)cc4F)CC2)n3C)c(=O)c1 (single isomer, unassigned) [Example 3u279] | 1.4 nM |

Continue with the molecule presented below.
Item: CNc1ccn(-c2ccnc3c2cc([C@H](C)N2CC=C(c4c(C)cc(C(=O)N5CCC(CN6CCN(Cc7ccc8c(c7)n(C)c(=O)n8[C@H]7CCC(=O)NC7=O)C[C@@H]6C)CC5)cc4F)CC2)n3C)c(=O)c1 (single isomer, unassigned) [Example 3u33] | System: STAT6 (Homo sapiens) | DC50: 0.2 nM

----------
Biological target: STAT6 (Homo sapiens, UniProt P42226)
Construct: These cells express endogenous STAT6; host or cells: HeLa LgBiT clone 4.14
Assay: Stat6 Degrader Assay (HiBiT based, HeLa LgBiT clone 4.14)
Assay type: cell-based
Conditions: HeLa LgBiT clone 4.14 HiBiT-STAT6, 4-24 h incubation; values given for compounds with >80% Emax; geometric mean; read-out: STAT6 degradation DC50
readout_label: DC50 (nM)
Give the number; nM is assumed, so skip it.

| compound | study_system | DC50 [nM] |
| --- | --- | --- |
| CNc1ccn(-c2ccnc3c2cc([C@H](C)N2CC=C(c4c(C)cc(C(=O)N5CCC(CN6CCN(Cc7cc8c(cc7F)n([C@H]7CCC(=O)NC7=O)c(=O)n8C)C[C@@H]6C)CC5)cc4F)CC2)n3C)c(=O)c1 (single isomer, unassigned) | STAT6 (Homo sapiens, UniProt P42226) | 0.6 |

The measured DC50 associated with CNc1ccn(-c2ccnc3c2cc([C@H](C)N2CC=C(c4c(C)cc(C(=O)N5CCC(CN6CCN(Cc7ccc8c(c7)n(C)c(=O)n8C7CCC(=O)NC7=O)C[C@@H]6C)CC5)cc4F)CC2)n3C)c(=O)c1 (stereo partly shown) reads 0.2

The compound identified as CNc1cc(=O)n(-c2ccnc3c2cc([C@H](C)N2CC=C(c4c(C)cc(C(=O)N5CCC(CN6CCN(c7ccc8c(c7)n(C)c(=O)n8[C@H]7CCC(=O)NC7=O)CC6)CC5)cc4F)CC2)n3C)cc1F (single isomer, unassigned) registered its DC50 at 2.7

DC50 recorded for this compound, CNc1ccn(-c2ccnc3c2cc([C@H](C)N2CC=C(c4c(C)cc(C(=O)N5CCC(CN6CCN(c7ccc8c(c7)C(C)(C)C(=O)N8C7CCC(=O)NC7=O)CC6)CC5)cc4F)CC2)n3C)c(=O)c1 (stereo partly shown) , is 6.5
